Value source: PubChem BioAssay AID2060352

tested on: 616215-338-R-J1-PDC spheroid with HUVEC/MSC, viability; test: Anticancer human tumor 616215-338-R-J1-PDC patient-derived colon adenocarcinoma cell line growth inhibition [TAK]; conditions: second compound 3 µM; first compound 0.316 µM; active compounds read low;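 also: spheroids exposed to drugs for 7 days before readout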
Readout name: viability, T/C (%)
Output spec: scalar in %, unitless text.

Examples with their reported viability, T/C follow.
CC(C)(C)c1nc(-c2cccc(NS(=O)(=O)c3c(F)cccc3F)c2F)c(-c2ccnc(N)n2)s1 + CC(C)NCC(C(=O)N1CCN(c2ncnc3c2C(C)CC3O)CC1)c1ccc(Cl)cc1 = 35.1
CCCS(=O)(=O)Nc1ccc(F)c(C(=O)c2c[nH]c3ncc(-c4ccc(Cl)cc4)cc23)c1F + CC(C)NCC(C(=O)N1CCN(c2ncnc3c2C(C)CC3O)CC1)c1ccc(Cl)cc1 = 90.5
Cc1nc(NC(=O)N2CCCC2C(N)=O)sc1-c1ccnc(C(C)(C)C(F)(F)F)c1 (centres undefined) + CC(C)NCC(C(=O)N1CCN(c2ncnc3c2C(C)CC3O)CC1)c1ccc(Cl)cc1 = 80

Below: the item to evaluate.
Write down viability, T/C measured for item COc1c(OCCCN2CCOCC2)ccc2c3n(c(=NC(=O)c4cnc(N)nc4)nc12)CCN3 + CC(C)NCC(C(=O)N1CCN(c2ncnc3c2C(C)CC3O)CC1)c1ccc(Cl)cc1
19.1
